tested on: A549; experiment: MTT assay, antiproliferative activity on lung cancer A549; format: cell-based, human; settings: MTT, text grading

| compound | cytotoxicity level in words, A549 |
| --- | --- |
| O=C(O)Cn1cc(COc2ccccc2-c2nc(-c3ccccc3)no2)nn1 [Compound 7a] | weak to inactive |
| Cc1c(O)ncc(COP(=O)([O-])O)c1C=NNC(=O)Cn1cc(COc2ccccc2-c2nc(Cc3ccccc3)no2)nn1.[Na+] [Compound 10b] | moderate |
| O=C(O)Cn1cc(COc2ccccc2-c2nc(Cc3ccccc3)no2)nn1 [Compound 7b] | weak to inactive |
| Cc1c(O)ncc(COP(=O)([O-])O)c1C=NNC(=O)Cn1cc(COc2ccccc2-c2nc(-c3ccccc3)no2)nn1.[Na+] [Compound 10a] | moderate |

* * *

system: Caco-2; experiment: MTT assay, antiproliferative activity on colorectal cancer Caco-2; assay type: cell-based, human; settings: MTT, text grading
reported-metric: cytotoxicity level in words, Caco-2

Solved cases (5 shown):
| compound | reported-metric | val |
| --- | --- | --- |
| Cc1c(O)ncc(COP(=O)([O-])O)c1C=NNC(=O)Cn1cc(COc2ccccc2-c2nc(Cc3ccccc3)no2)nn1.[Na+] [Compound 10b] | cytotoxicity level in words, Caco-2 | moderate |
| CCOC(=O)Cn1cc(COc2ccccc2-c2nc(Cc3ccccc3)no2)nn1 [Compound 5b] | cytotoxicity level in words, Caco-2 | moderate |
| O=C(O)Cn1cc(COc2ccccc2-c2nc(-c3ccccc3)no2)nn1 [Compound 7a] | cytotoxicity level in words, Caco-2 | weak to inactive |
| CCOC(=O)Cn1cc(COc2ccccc2-c2nc(-c3ccccc3)no2)nn1 [Compound 5a] | cytotoxicity level in words, Caco-2 | moderate |
| O=C(O)Cn1cc(COc2ccccc2-c2nc(Cc3ccccc3)no2)nn1 [Compound 7b] | cytotoxicity level in words, Caco-2 | weak to inactive |

Give its cytotoxicity level in words, Caco-2 value. Item: Cc1c(O)ncc(COP(=O)([O-])O)c1C=NNC(=O)Cn1cc(COc2ccccc2-c2nc(-c3ccccc3)no2)nn1.[Na+] [Compound 10a]
moderate

Give its cytotoxicity level in words, Caco-2 value. Item: O=C(Cn1cc(COc2ccccc2-c2nc(-c3ccccc3)no2)nn1)NNC(=S)Nc1ccccc1 [Compound 11a]
moderate

* * *

# reported SI (CaCo-2); entries follow
tested on: Caco-2; test: MTT assay, antiproliferative activity on colorectal cancer Caco-2; assay type: cell-based, human; details: selectivity index WI38 vs CaCo-2
// no unit, no text: just the number

Solved cases (2 shown):
| compound | target-desc | reported-metric | val |
| --- | --- | --- | --- |
| NNC(=O)Cn1cc(COc2ccccc2-c2nc(Cc3ccccc3)no2)nn1 | Caco-2 | SI (CaCo-2) | 0.81 |
| O=C(Cn1cc(COc2ccccc2-c2nc(-c3ccccc3)no2)nn1)NNC(=S)Nc1ccccc1 [Compound 11a] | Caco-2 | SI (CaCo-2) | 0.67 |

Give its SI (CaCo-2) value. Item: NC(=O)Cn1cc(COc2ccccc2-c2nc(-c3ccccc3)no2)nn1
2.11

Give its SI (CaCo-2) value. Item: O=C(Cn1cc(COc2ccccc2-c2nc(Cc3ccccc3)no2)nn1)NNC(=S)Nc1ccccc1 [Compound 11b]
2.08

* * *

tested on: Caco-2; assay: MTT assay, antiproliferative activity on colorectal cancer Caco-2; assay type: cell-based, human; details: selectivity index WI38 vs CaCo-2
# reported SI (CaCo-2); entries follow

| compound | SI (CaCo-2) |
| --- | --- |
| Cc1c(O)ncc(COP(=O)([O-])O)c1C=NNC(=O)Cn1cc(COc2ccccc2-c2nc(-c3ccccc3)no2)nn1.[Na+] [Compound 10a] | 0.34 |
| NC(=O)Cn1cc(COc2ccccc2-c2nc(Cc3ccccc3)no2)nn1 | 1.38 |
| NNC(=O)Cn1cc(COc2ccccc2-c2nc(-c3ccccc3)no2)nn1 | 2.38 |
| CCOC(=O)Cn1cc(COc2ccccc2-c2nc(-c3ccccc3)no2)nn1 | 0.54 |
| Cc1c(O)ncc(COP(=O)([O-])O)c1C=NNC(=O)Cn1cc(COc2ccccc2-c2nc(Cc3ccccc3)no2)nn1.[Na+] [Compound 10b] | 0.74 |

Give its SI (CaCo-2) value. Item: CCOC(=O)Cn1cc(COc2ccccc2-c2nc(Cc3ccccc3)no2)nn1
0.41

Give its SI (CaCo-2) value. Item: O=C(O)Cn1cc(COc2ccccc2-c2nc(Cc3ccccc3)no2)nn1
0.48

Give its SI (CaCo-2) value. Item: O=C(Cn1cc(COc2ccccc2-c2nc(-c3ccccc3)no2)nn1)NN=Cc1ccccc1O
1.81

Give its SI (CaCo-2) value. Item: O=C(O)Cn1cc(COc2ccccc2-c2nc(-c3ccccc3)no2)nn1
0.23

Give its SI (CaCo-2) value. Item: COc1cccc2c1C(=O)c1c(O)c3c(c(O)c1C2=O)C[C@@](O)(C(=O)CO)C[C@@H]3O[C@H]1C[C@H](N)[C@H](O)[C@H](C)O1 [Doxorubicin, reference compound]
3.32

Give its SI (CaCo-2) value. Item: O=C(Cn1cc(COc2ccccc2-c2nc(Cc3ccccc3)no2)nn1)NN=Cc1ccccc1O
0.73
